Biological target: SARM1 (50-724) (Homo sapiens, UniProt Q6SZW1)
Sequence (Q6SZW1 50-724): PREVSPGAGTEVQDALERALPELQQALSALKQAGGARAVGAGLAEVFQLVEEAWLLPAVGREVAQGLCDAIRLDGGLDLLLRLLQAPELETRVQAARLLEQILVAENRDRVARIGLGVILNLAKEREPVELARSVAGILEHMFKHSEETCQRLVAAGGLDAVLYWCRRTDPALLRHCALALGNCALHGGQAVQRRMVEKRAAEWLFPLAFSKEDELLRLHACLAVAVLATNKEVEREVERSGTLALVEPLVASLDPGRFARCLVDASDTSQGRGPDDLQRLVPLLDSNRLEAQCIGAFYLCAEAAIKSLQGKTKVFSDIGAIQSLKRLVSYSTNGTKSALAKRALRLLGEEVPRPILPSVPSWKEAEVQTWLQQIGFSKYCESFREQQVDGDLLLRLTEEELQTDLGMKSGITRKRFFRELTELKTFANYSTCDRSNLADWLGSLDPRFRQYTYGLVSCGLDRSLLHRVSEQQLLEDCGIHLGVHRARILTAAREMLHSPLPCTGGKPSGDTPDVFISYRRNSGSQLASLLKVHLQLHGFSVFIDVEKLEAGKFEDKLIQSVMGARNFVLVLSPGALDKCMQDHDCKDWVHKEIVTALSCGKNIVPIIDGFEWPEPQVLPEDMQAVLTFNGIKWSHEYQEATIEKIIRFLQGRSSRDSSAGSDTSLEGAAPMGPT
VALUE KIND: IC50

compound="FC(F)(F)Cc1ccccc1-n1cnnc1-c1nc2cc(C(F)(F)F)ccc2[nH]1 [Compound 248]" experimental_value="> 1000 nM"
compound="CS(=O)(=O)Cc1cccc(OC(F)(F)F)c1-n1cnnc1-c1nc2cc(C(F)(F)F)ccc2[nH]1 [Compound 289]" experimental_value="≤ 100 nM"
compound="C[S+]([O-])c1c(Br)ccc2[nH]c(-c3nncn3-c3cccc(Cl)c3Cl)nc12 (stereo not shown) [Example 94]" experimental_value="500 to 1000 nM"

Then there is this compound:
GET /value?item= FC(F)(F)c1ccc2[nH]c(-c3cncn3-c3cccc(Cl)c3Cl)nc2c1 [Example 45] &field=IC50 returns ≤ 100 nM

====

Recorded pIC50 values for a group of molecules are listed next.
Molecular target: SARM1 (50-724) (Homo sapiens, UniProt Q6SZW1)
Sequence (Q6SZW1 50-724): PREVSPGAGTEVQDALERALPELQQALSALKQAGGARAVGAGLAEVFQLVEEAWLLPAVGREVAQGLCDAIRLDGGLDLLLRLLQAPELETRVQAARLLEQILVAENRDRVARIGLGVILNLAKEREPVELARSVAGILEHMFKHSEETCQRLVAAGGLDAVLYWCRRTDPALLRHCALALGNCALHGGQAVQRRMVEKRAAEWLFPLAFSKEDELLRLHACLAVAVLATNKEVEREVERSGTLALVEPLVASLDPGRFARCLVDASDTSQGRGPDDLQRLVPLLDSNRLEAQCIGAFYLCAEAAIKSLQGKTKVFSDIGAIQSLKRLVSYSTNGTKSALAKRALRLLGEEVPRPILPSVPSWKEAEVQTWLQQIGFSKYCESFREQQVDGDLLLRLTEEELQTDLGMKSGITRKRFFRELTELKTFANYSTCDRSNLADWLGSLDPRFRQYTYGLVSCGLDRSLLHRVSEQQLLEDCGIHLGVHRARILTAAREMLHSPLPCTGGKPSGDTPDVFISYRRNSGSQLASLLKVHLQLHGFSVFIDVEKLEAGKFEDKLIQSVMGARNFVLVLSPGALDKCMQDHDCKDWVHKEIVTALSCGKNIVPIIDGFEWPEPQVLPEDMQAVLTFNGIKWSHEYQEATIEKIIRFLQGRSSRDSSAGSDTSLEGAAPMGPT
pIC50: −log10 of the molar value.

Worked examples follow.
molecule=Cc1cc(-c2ccc3[nH]c(-c4nncn4-c4cccc(Cl)c4Cl)nc3c2)sn1 value_kind=pIC50 experimental_value="6.30 to 7.00"
molecule="COC(=O)C(C)c1ccc2[nH]c(-c3nncn3-c3cccc(Cl)c3Cl)nc2c1 (centres unmarked)" value_kind=pIC50 experimental_value="≥ 7.00"
molecule=Cc1ccc2[nH]c(-c3n[nH]c(=O)n3C3CCCC3)nc2c1 value_kind=pIC50 experimental_value="< 6.00"
molecule=Fc1cc(CC(F)(F)F)cc2nc(-c3nncn3-c3cnccc3C(F)(F)F)[nH]c12 value_kind=pIC50 experimental_value="≥ 7.00"
molecule=Cc1cc(-c2cnccc2C(F)(F)F)c(-c2nc3cc(C(F)(F)F)ccc3[nH]2)nn1 value_kind=pIC50 experimental_value="6.30 to 7.00"

pIC50 recorded for this molecule, CC1CCN(c2cc(F)c3[nH]c(-c4nncn4-c4cnccc4C(F)(F)F)nc3c2)C1 (centres unmarked) , is ≥ 7.00

get_value(item= "OCCc1cc(-n2cnnc2-c2nc3cc(C(F)(F)F)ccc3[nH]2)c(OC(F)(F)F)cn1" , readout=pIC50) returns ≥ 7.00

Field pIC50 (entry "Cc1ccc2[nH]c(C3=C(C4CCCC4)C(=O)OC3)nc2c1" ) reads < 6.00

====

pIC50: −log10 of the molar value.
Reported values: pIC50 for SARM1 (50-724) (Homo sapiens, UniProt Q6SZW1), one per item.

compound=O=c1onc(-c2cccc(Cl)c2Cl)n1-c1nc2cc(C(F)(F)F)ccc2[nH]1 value_kind=pIC50 experimental_value="< 6.00"
compound=O=C(O)c1cc(-n2cnnc2-c2nc3cc(C(F)(F)F)ccc3[nH]2)c(OC(F)(F)F)cn1 value_kind=pIC50 experimental_value="≥ 7.00"
compound=Fc1cc(C2(c3nccs3)CC2)cc2nc(-c3nncn3-c3cnccc3C(F)(F)F)[nH]c12 value_kind=pIC50 experimental_value="≥ 7.00"
compound=FC(F)(F)c1ccc2[nH]c(-c3nnc(OC4CSC4)n3-c3cccc(Cl)c3Cl)nc2c1 value_kind=pIC50 experimental_value="< 6.00"
compound=FC(F)(F)c1ccc2[nH]c(-c3nncn3-c3cn4nccc4cc3C(F)(F)F)nc2c1 value_kind=pIC50 experimental_value="6.30 to 7.00"

SARM1 (50-724) (Homo sapiens, UniProt Q6SZW1) data for "CC(F)(F)c1cc(F)c2[nH]c(-c3nncn3-c3cnccc3C(F)(F)F)nc2c1" ; its pIC50: ≥ 7.00

Known value: SARM1 (50-724) (Homo sapiens, UniProt Q6SZW1) pIC50 of the compound "Cc1ccc2[nH]c(-c3cccn3C3CCCC3)nc2c1" equals 6.30 to 7.00

Let me check: "N#Cc1c(-n2c(-c3cccc(Cl)c3Cl)n[nH]c2=O)[nH]c2ccc(C(F)(F)F)cc12" , system SARM1 (50-724) (Homo sapiens, UniProt Q6SZW1), measured pIC50 is < 6.00

Item "CNC(=O)c1cc(F)c(Cl)c(-n2cnnc2-c2nc3cc(C(F)(F)F)cc(F)c3[nH]2)c1" ; assay system SARM1 (50-724) (Homo sapiens, UniProt Q6SZW1); pIC50 reported as ≥ 7.00

The value of pIC50 recorded for CC1CC(c2cc(F)c3[nH]c(-c4nncn4-c4cnccc4C(F)(F)F)nc3c2)CO1 (stereo not shown) when tested on SARM1 (50-724) (Homo sapiens, UniProt Q6SZW1) reads ≥ 7.00

====

So I've got IC50 readings for SARM1 (50-724) (Homo sapiens), take a look.

Below: 3 compounds and their reported IC50.
compound="CP(C)(=O)c1cc(F)c2[nH]c(-c3nncn3-c3cnccc3C(F)(F)F)nc2c1 [Compound 392]" value_kind=IC50 experimental_value="0.1 to 0.5 µM"
compound="Cc1nnc(-c2nc3cc(C(F)(F)F)ccc3[nH]2)n1-c1cccc(Cl)c1Cl [Example 87]" value_kind=IC50 experimental_value="≤ 0.1 µM"
compound="FC(F)(F)c1ccc2[nH]c(C3CSCCN3c3ccccc3)nc2c1 (centres unmarked) [Compound 361]" value_kind=IC50 experimental_value="> 1 µM"

The reported value for FC(F)(F)c1ccncc1-n1cnnc1-c1nc2c(N3CC4(COC4)C3)c(Cl)ccc2[nH]1 [Compound 357] in terms of IC50 is > 1 µM

# IC50 of Clc1cccc(-n2cnnc2-c2nc3cc(-c4ccn[nH]4)ccc3[nH]2)c1Cl [Example 68] = ≤ 0.1 µM

The compound listed as FC1(F)CN(c2c(Cl)ccc3[nH]c(-c4nncn4-c4cnccc4C(F)(F)F)nc23)C1 [Compound 358] has a reported IC50 of 0.1 to 0.5 µM

What the record says about Cc1ccc2[nH]c(-c3[nH]nnc3C3CCCC3)nc2c1 [Compound 33] : IC50 is > 1 µM

Recorded result, NC(=O)COc1ccc(OC(F)(F)F)c(-n2cnnc2-c2nc3cc(C(F)(F)F)ccc3[nH]2)c1 [Compound 249] , IC50: ≤ 0.1 µM

====

Target: SARM1 (50-724) (Homo sapiens, UniProt Q6SZW1)
Sequence (Q6SZW1 50-724): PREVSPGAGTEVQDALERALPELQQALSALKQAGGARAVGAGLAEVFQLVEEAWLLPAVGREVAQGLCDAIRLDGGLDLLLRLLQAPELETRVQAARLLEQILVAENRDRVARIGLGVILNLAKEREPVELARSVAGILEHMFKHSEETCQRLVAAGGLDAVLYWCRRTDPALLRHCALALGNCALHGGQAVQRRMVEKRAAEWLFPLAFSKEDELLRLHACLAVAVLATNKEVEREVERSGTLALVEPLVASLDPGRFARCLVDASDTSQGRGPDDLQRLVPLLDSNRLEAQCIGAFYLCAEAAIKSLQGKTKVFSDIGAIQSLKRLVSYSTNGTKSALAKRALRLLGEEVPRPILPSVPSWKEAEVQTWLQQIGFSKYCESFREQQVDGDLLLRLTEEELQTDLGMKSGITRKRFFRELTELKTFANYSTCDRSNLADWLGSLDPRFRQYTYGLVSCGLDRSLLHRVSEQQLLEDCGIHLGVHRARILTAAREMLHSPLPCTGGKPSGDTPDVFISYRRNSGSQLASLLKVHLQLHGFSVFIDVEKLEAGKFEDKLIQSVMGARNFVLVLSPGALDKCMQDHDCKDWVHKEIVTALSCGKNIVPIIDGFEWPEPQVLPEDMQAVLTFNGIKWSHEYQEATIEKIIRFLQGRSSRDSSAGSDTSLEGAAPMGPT
pIC50: −log10 of the molar value.
VALUE KIND: pIC50

Solved cases below.
molecule="OC1CC(OCc2nnc(-c3nc4cc(C(F)(F)F)ccc4[nH]3)n2-c2cccc(Cl)c2Cl)C1 (centres unmarked)" experimental_value="≥ 7.00"
molecule=CN(CCCO)c1cc(F)c2[nH]c(-c3nncn3-c3cnccc3C(F)(F)F)nc2c1 experimental_value="≥ 7.00"
molecule="Fc1cc(C2CC23CCOC3)cc2nc(-c3nncn3-c3cnccc3C(F)(F)F)[nH]c12 (centres unmarked)" experimental_value="≥ 7.00"

Log: SARM1 (50-724) (Homo sapiens, UniProt Q6SZW1), molecule CC(c1cc(F)c2[nH]c(-c3nncn3-c3cnccc3C(F)(F)F)nc2c1)C(F)(F)F (centres unmarked) , pIC50 = ≥ 7.00

Item "CS(=O)(=O)CCOc1ccc(OC(F)(F)F)c(-n2cnnc2-c2nc3cc(C(F)(F)F)ccc3[nH]2)n1" was tested on SARM1 (50-724) (Homo sapiens, UniProt Q6SZW1); the reported pIC50 is ≥ 7.00

So the reported pIC50 for "Fc1cccc(-n2c(Cn3ccnn3)nnc2-c2nc3cc(C(F)(F)F)ccc3[nH]2)c1Cl" , on SARM1 (50-724) (Homo sapiens, UniProt Q6SZW1), turned out to be ≥ 7.00

Tested on SARM1 (50-724) (Homo sapiens, UniProt Q6SZW1), the item "FC(F)(F)c1ccc2[nH]c(-c3nncn3-c3cnccc3C(F)(F)F)nc2c1" showed pIC50 equal to ≥ 7.00
